test system: CCRF-CEM leukemia; assay: NCI tumour cell line growth inhibition, 48 h
What TGI was measured for each of the following?
Give bare numbers, in µM.

[[record]]
compound = "O=C(Nc1ccc(CN2CCOCC2)cc1)c1ccc(-c2cc(Cl)ccc2Cl)o1"
recorded_metric = "TGI"
measured_value = 49.1


# input for lookup
What does the record list as TGI for Nc1nc2c(c3ncccc13)C(c1cccc(Br)c1)Cc1ncccc1-2 (stereo not given) ?
38.6

* * *

system: SF-539 CNS; test: NCI tumour cell line growth inhibition, 48 h
Residues, ends and D or L forms follow the SMILES beside them. *: point of attachment. Boc = CC(C)(C)OC(=O)*
Give TGI for every item shown.

// batch mode: one TGI value per listed entry
1. CCn1cc(C(=O)O)c(=O)c2cc(F)c(N3CCN(S(=O)(=O)c4ccc(Cl)cc4)CC3)cc21
2. O=[N+]([O-])c1ccc2c(c1)Sc1ccccc1N2CCCCCl
3. CCC(C)CN1C(=O)NC(Cc2ccccc2)C1=O (stereo not given)
4. C=C1OC(=O)[C@]2([C@@H](/C=C/C)C=CC(=O)[C@H]2O)[C@@H]1O

["> 100 µM", "> 100 µM", "> 100 µM", "> 100 µM"]

Please state TGI for every compound in the list that follows.
1. S=C(S)N1CCN(c2cccc(Cl)c2)CC1
2. O=C(Oc1ccc(S(=O)(=O)F)cc1F)c1ccccc1Cl
3. CC12CCC(C(Br)(Br)C1=O)C2(C)C (stereo not given)
4. N#C/C(=C\c1ccccc1)c1nc(-c2cc3ccccc3oc2=O)cs1

["> 100 µM", "62.1 µM", "16.9 µM", "> 100 µM"]

Kindly give each listed record's TGI.
1. CCOC(=O)C1=C(NC(C)(C)C)OC/C1=N\NC(=O)Cc1ccccc1
2. COC(=O)CNC(=O)C(Cc1ccccc1)NC(=O)C(Cc1ccccc1)NC(=O)OC(C)(C)C (stereo not drawn) (Boc-Phe-Phe-Gly-OMe; configuration not given here)

["> 100 µM", "41 µg/mL"]
